test: in vivo pharmacokinetics, dog; set-up: species or system Beagle dogs; details: Beagle, plasma, intravenous, read-out: Vss
MEASURED ATTRIBUTE: Vd

Please fill in: Vd reported for `O=C1CN(C(=O)c2c(F)cccc2F)[C@H](c2cccc(Br)c2)N1O` = 1.36 L/kg

====

For each record, write down the corresponding pIC50.
system: IFNγ-stimulated adherent cell samples isolated from ascites of ovarian cancer patients; test: Trp-catabolizing activity in IFNγ-stimulated ascites cell samples; format: cell-based; conditions: Homo sapiens; IFNγ-stimulated; read-out: IC50 ASC 013
Give bare numbers, as −log10 of the molar value.

> print(dat)
                                   molecule  measured.attribute  quantitative.result
1  NS(=O)(=O)NCCNc1nonc1C(=NO)Nc1ccc(F)c(Br)c1 [epacadostat, reference compound]               pIC50                 8.05

Please fill in: pIC50 reported for O=C1CN(C(=O)c2c(F)cccc2F)[C@H](c2cccc(Br)c2)N1O [NTRC 3883-0] = 6.63

====

experiment: in vivo pharmacokinetics, monkey; details: cynomolgus monkey, plasma, intravenous; monkey, body weight 3.0 kg
MEASURED ATTRIBUTE: clearance (mL/min)
One number for each entry, in mL/min.

Please fill in: clearance reported for O=C1CN(C(=O)c2c(F)cccc2F)[C@H](c2cccc(Br)c2)N1O [NTRC 3883-0] = 111

====

Test: in vivo pharmacokinetics, rat
Design: species or system Wistar rats
Conditions: Wistar, plasma, intravenous, read-out: Vss
Experimental: Pharmacokinetic properties of NTRC 3883-0 were determined in plasma following single oral (p.o.) and i.v. administration to male CD-1 mice (n = 6 per treatment group with three mice sampled per time point), Wistar rats (n = 3), cynomolgus monkey (n = 1) and Beagle dogs (n = 3). Formulations were prepared in DMSO, Kolliphor® EL, 5% D-mannitol in Elix water at a volume ratio of 1:1:8 for i.v. administration, and in 0.5% gelatin, 5% D-mannitol in Elix water for p.o. administration. […]
MEASURED ATTRIBUTE: Vd (L/kg)
One number for each entry, in L/kg.

Please fill in: Vd reported for O=C1CN(C(=O)c2c(F)cccc2F)[C@H](c2cccc(Br)c2)N1O [NTRC 3883-0] = 1.43

====

target: hWB + IFNγ (hIDO1) (Homo sapiens); test: human whole blood assay, Trp-catabolizing activity after IFNγ stimulation; conditions: human whole blood from healthy donors
Sequence (P14902 whole entry): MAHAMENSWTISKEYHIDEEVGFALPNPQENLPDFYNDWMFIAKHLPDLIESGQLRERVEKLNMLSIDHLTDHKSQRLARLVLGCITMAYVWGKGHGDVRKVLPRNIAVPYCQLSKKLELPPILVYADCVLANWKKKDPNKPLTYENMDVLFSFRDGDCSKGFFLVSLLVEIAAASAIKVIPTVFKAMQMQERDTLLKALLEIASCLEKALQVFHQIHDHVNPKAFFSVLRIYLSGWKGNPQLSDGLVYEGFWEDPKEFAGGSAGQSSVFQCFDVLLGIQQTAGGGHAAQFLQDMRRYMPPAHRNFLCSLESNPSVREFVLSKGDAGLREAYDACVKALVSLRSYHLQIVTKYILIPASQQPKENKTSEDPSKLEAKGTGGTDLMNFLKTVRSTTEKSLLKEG
MEASURED ATTRIBUTE: pIC50
One number for each entry, as −log10 of the molar value.

Please fill in: pIC50 reported for `O=C1CN(C(=O)c2c(F)cccc2F)[C@H](c2cccc(Br)c2)N1O` = 6.42

====

target: SW48 (hTDO) (Homo sapiens); assay: cell-based assay, Trp-catabolizing activity in SW48 cells; conditions: Trp-catabolizing activity
MEASURED ATTRIBUTE: IC50

Please fill in: IC50 reported for NS(=O)(=O)NCCNc1nonc1C(=NO)Nc1ccc(F)c(Br)c1 [epacadostat, reference compound] = 6.46 µM

====

biological target: A375 + IFNγ (hIDO1) (Homo sapiens); assay: cell-based assay, Trp-catabolizing activity in IFNγ-stimulated A375 cells; conditions: IFNγ-stimulated A375 human melanoma cells
Sequence (P14902 whole entry): as above
MEASURED ATTRIBUTE: pIC50
Numbers only, as −log10 of the molar value.

Sample answers from the record:
> print(dat)
                                   compound  quantitative.result
1  O=C1CN(C(=O)c2cc(F)ccc2F)C(c2cccc(Br)c2)N1O (stereo not drawn) [Compound 3h]                 5.55
2  O=C1CN(C(=O)c2ccccc2F)C(c2cccc(Br)c2)N1O (stereo not drawn) [Compound 3c]                 5.94
3  O=C1CN(C(=O)c2ccccc2)C(c2cccc(Cl)c2)N1O (stereo not drawn) [Compound 2b]                 5.28

Quick batch: pIC50 for everything below.
1. O=C1CN(C(=O)c2ccccc2Cl)C(c2cccc(Br)c2)N1O (stereo not drawn) [Compound 3f]
2. O=C1CN(C(=O)c2ccc(F)cc2)C(c2cccc(Br)c2)N1O (stereo not drawn) [Compound 3a]
3. O=C1CN(C(=O)c2c(F)cccc2F)C(c2cccc(Br)c2)N1O (stereo not drawn) [Compound 3j]
4. O=C1CN(C(=O)c2ccccc2)C(c2cccc(Br)c2)N1O (stereo not drawn) [Compound 1]

a:
1: 5.34; 2: 4.96; 3: 6.23; 4: 5.34

====

assay: plasma protein binding, mouse; type: in vitro ADME
MEASURED ATTRIBUTE: fraction unbound

Please fill in: fraction unbound reported for `O=C1CN(C(=O)c2c(F)cccc2F)[C@H](c2cccc(Br)c2)N1O` = 0.46

====

molecular target: human TDO (Homo sapiens, UniProt P48775)
Sequence (P48775 whole entry): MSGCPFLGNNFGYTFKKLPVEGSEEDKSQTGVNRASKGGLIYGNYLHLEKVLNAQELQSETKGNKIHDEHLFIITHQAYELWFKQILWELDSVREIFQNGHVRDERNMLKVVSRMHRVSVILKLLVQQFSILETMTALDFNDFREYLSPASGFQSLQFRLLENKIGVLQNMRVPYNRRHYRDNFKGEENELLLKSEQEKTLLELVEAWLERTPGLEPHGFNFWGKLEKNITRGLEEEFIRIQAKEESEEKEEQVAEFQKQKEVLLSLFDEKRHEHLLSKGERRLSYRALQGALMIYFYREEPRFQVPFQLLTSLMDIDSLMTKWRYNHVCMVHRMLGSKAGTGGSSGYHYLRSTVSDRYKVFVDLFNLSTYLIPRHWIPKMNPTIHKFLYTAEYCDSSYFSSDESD
MEASURED ATTRIBUTE: IC50 (nM)
Answers are plain numbers, in nM.

Please fill in: IC50 reported for NS(=O)(=O)NCCNc1nonc1C(=NO)Nc1ccc(F)c(Br)c1 [epacadostat, reference compound] = 54

====

test system: unstimulated adherent cell samples isolated from ascites of ovarian cancer patients; assay: Trp-catabolizing activity in unstimulated ascites cell samples; type: cell-based, human; settings: Homo sapiens, read-out: IC50 ASC 031
MEASURED ATTRIBUTE: IC50 (µM)
One number for each entry, in µM.

Please fill in: IC50 reported for NS(=O)(=O)NCCNc1nonc1C(=NO)Nc1ccc(F)c(Br)c1 [epacadostat, reference compound] = 8.63

====

experiment: in vivo pharmacokinetics, rat; set-up: species or system Wistar rats; details: Wistar, plasma, po, p.o. versus i.v., read-out: Bioavailability (F)
MEASURED ATTRIBUTE: bioavailability (%)
Numbers only, in %.

Please fill in: bioavailability reported for O=C1CN(C(=O)c2c(F)cccc2F)[C@H](c2cccc(Br)c2)N1O [NTRC 3883-0] = 91

====

test system: IFNγ-stimulated adherent cell samples isolated from ascites of ovarian cancer patients; experiment: Trp-catabolizing activity in IFNγ-stimulated ascites cell samples; format: cell-based; conditions: Homo sapiens; IFNγ-stimulated; read-out: IC50 ASC 010
For each record, write down the corresponding pIC50.
One number for each entry, as −log10 of the molar value.

> print(dat)
                                   compound                           subject.of.test  measured.attribute  quantitative.result
1  NS(=O)(=O)NCCNc1nonc1C(=NO)Nc1ccc(F)c(Br)c1 [epacadostat, reference compound]  IFNγ-stimulated adherent cell samples isolated from ascites of ovarian cancer patients               pIC50                 8.03

Would you kindly look at the next entry?
Please fill in: pIC50 reported for O=C1CN(C(=O)c2c(F)cccc2F)[C@H](c2cccc(Br)c2)N1O [NTRC 3883-0] = 6.53

====

For each record, write down the corresponding IC50.
biological target: human IDO1 (Homo sapiens, UniProt P14902); construct: Full-length recombinant human and mouse IDO1 were expressed in Escherichia coli with a hexahistidine tag at the N-terminus; hexahistidine (N); made in house; host or cells: Escherichia coli; assay: human IDO1 biochemical assay (NFK GreenScreen); conditions: human IDO1 biochemical assay
One number for each entry, in µM.

Sample answers from the record:
> print(dat)
                                   compound  measured.attribute  scale.unit  quantitative.result
1  O=C1CN(C(=O)c2cccc(F)c2)C(c2cccc(Br)c2)N1O (stereo not drawn)                IC50          µM                 0.91
2  O=C1CN(C(=O)c2ccccc2Cl)C(c2cccc(Br)c2)N1O (stereo not drawn)                IC50          µM                0.784

Please fill in: IC50 reported for O=C1CN(C(=O)c2ccccc2)C(c2cccc(Br)c2)N1O (stereo not drawn) = 1.22
